Target: Neurotensin receptor type 1 (Homo sapiens)
Sequence (P30989 whole entry): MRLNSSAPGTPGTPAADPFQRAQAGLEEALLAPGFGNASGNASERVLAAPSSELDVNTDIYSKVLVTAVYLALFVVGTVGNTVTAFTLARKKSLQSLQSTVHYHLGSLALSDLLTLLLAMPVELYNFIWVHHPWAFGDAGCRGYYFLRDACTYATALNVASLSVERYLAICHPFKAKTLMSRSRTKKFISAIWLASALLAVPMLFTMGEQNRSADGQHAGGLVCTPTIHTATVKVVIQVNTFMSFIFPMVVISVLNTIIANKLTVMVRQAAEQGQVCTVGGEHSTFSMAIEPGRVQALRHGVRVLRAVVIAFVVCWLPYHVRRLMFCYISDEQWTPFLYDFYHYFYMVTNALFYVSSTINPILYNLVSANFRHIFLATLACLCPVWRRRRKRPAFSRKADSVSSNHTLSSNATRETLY
Assay: NTR1 Ca2+ Flux Dose Response: NTSR1 (NTR1) CHO cells are plated in 20 uL of assay media containing Ham's F12 supplemented with 10% fetal bovine serum and 0.4 mg/mL G418 at a concentration of 1.0×10^6 cells per mL into black, 384-well assay plates with clear bottoms using a Multidrop liquid handler. Assay plates are incubated at 37° C. in 5% CO2. The next day, the assay plates are aspirated to remove growth media and washed once with 20 uL of DPBS. The DPBS is then aspirated from the assay plate and replaced with 25 uL of Fluo-4 NW calcium dye prepared according to the manufacturer's recommendations then the plates are incubated for 1 hour at 37° C. Following the incubation in the presence of dye, the assay is run on a Molecular Devices FlexStation-III using 494 excitation and 516 emission wavelengths set to read for 90 seconds with the addition at 18 seconds of 5 uL of 6× final concentration of test compounds and peptide control diluted in assay media containing 0.1% BSA and no more than 9% DMSO to yield a maximum final DMSO concentration of 1.5%. […] EC50 values were calculated for those compounds tested in 8-point dose dependent response.
Below: a set of entries, each annotated with reported EC50.

- Structure smiles string: "COc1ccccc1C1CCN(c2nc(C3CC3)nc(C)c2CC(=O)N(C)CCO)CC1"
  Result type: "EC50"
  Result: "> 10 µM"

Look up and report measured EC50 for this entry: COc1ccccc1C1CCN(c2nc(C3CC3)nc3c(N(C)CCO)cccc23)CC1 > 10 µM

Look up and report measured EC50 for this entry: COc1ccccc1C1CCN(c2nc(C3CC3)nc3cc(F)c(N(C)CCO)cc23)CC1 < 0.5 µM

Look up and report measured EC50 for this entry: COc1cccc2c1CCN(c1nc(C3CC3)nc3ccc(N(C)CCO)cc13)C2 > 10 µM
